tested target: G9a and GLP (Homo sapiens, UniProt Q96KQ7+Q9H9B1)
Construct: endogenous in cells; host or cells: HEK 293T
Sequence (Q96KQ7 2-1210 limits assumed): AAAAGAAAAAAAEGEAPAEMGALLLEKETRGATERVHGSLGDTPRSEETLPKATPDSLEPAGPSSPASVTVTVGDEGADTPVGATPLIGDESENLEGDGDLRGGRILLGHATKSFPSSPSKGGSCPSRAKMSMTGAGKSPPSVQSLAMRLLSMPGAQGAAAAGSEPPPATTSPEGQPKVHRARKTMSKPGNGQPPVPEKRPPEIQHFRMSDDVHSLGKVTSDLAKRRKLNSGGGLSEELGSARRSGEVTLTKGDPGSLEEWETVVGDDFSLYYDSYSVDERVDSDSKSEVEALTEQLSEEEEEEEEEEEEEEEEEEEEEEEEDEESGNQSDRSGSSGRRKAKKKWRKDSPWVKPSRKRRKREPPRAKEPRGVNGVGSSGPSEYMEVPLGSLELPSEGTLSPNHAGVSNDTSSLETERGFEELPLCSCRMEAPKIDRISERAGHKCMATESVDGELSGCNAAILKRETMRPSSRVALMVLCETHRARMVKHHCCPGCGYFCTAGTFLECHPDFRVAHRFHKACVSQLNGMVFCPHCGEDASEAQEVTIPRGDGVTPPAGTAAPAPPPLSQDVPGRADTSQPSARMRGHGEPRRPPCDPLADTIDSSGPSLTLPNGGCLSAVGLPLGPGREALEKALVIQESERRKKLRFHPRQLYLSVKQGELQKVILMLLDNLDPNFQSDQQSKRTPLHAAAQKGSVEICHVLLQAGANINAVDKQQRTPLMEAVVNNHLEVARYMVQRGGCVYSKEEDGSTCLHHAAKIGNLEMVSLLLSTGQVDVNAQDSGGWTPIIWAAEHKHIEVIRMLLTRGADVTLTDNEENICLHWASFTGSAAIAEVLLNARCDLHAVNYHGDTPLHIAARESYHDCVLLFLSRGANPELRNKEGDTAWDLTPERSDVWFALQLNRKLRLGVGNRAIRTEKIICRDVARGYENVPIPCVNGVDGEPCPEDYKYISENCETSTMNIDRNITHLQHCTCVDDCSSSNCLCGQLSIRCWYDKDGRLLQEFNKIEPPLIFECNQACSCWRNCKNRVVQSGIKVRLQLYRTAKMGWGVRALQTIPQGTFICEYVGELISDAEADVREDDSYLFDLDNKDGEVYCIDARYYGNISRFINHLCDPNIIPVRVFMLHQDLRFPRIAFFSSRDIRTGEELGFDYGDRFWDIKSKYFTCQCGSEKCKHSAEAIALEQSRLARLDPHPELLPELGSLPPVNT
Sequence (Q9H9B1 2-1298 limits assumed): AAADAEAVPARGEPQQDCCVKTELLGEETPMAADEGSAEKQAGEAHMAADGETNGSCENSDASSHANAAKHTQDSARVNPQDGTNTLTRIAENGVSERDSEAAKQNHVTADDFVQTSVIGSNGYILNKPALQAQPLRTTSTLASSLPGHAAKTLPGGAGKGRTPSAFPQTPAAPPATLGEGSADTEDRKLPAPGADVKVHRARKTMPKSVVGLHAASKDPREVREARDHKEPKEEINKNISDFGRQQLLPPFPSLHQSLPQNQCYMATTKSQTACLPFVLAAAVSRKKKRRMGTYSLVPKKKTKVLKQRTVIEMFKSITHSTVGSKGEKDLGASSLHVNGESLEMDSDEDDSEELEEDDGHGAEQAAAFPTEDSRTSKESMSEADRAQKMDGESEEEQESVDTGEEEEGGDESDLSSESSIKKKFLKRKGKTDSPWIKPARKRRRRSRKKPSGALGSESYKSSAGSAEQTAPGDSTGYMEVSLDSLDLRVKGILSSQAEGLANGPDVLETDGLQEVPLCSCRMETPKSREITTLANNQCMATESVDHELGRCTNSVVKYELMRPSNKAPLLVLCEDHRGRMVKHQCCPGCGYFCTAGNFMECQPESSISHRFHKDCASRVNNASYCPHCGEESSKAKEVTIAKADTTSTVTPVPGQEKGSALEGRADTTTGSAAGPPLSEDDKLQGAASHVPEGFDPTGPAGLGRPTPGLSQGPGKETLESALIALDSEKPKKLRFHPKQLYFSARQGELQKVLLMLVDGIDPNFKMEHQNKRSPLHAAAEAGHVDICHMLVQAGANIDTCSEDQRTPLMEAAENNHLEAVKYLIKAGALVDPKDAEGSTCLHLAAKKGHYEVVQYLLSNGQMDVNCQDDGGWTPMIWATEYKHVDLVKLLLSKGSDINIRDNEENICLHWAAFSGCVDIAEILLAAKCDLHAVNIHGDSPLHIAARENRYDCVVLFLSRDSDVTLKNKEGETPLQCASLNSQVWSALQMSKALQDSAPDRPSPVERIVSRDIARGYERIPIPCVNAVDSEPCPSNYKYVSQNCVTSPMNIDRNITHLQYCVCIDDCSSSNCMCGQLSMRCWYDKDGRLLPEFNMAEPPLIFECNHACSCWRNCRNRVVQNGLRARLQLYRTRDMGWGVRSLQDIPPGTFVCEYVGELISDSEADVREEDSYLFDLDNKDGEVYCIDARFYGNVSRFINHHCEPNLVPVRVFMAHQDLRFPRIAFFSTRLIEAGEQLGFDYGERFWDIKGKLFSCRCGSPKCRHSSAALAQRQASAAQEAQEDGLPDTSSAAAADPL
measurement protocol: Triple SILAC pull-down after UNC0638 treatment of 293T cells, DMSO/UNC0638 ratio of protein captured by 3×MBT;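 also: mass spectrometry (Q-Exactive) SILAC quantitation, DMSO/UNC0638 ratio computed after subtracting 3×MBTD355N mutant pull-down background, only proteins with at least twofold 3×MBT over mutant signal considered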
Assay type: cell-based
condition label: average of UNC Light and UNC Heavy experiments
measured endpoint: Relative to UNC0638 Average (log base 2)

In the examples that follow, each entry is paired with its recorded Relative to UNC0638 Average.
> print(dat)
   substance  result.number
1     HNRNPU           0.25
2    HNRNPAB           0.20
3    KHDRBS1           0.37

(P) SMARCA5
(Q) TARDBP
Select the item whose Relative to UNC0638 Average value is smaller, choosing between P and Q . In your reply, give the label of the chosen option.
Q
(Q: 0.20 log base 2, P: 0.39 log base 2)
